# Test system: Vero C1008
# experimental-conditions: chlorocebus sabaeus, vero c1008, 72 h
Where a name gives a salt, the structure may show the parent alone.
Known CC50 of a selection of compounds
// return numeric value only (unit: µM, not printed)

Example compounds with recorded CC50:
* CCN(CC)CCOc1ccc(C(O)(Cc2ccc(Cl)cc2)c2ccc(C)cc2)cc1 (stereo not drawn) | 21.2
* CCSc1ccc2c(c1)N(CCCN1CCN(C)CC1)c1ccccc1S2 [THIETHYLPERAZINE MALEATE] | 18.4
* CC/C(=C(\c1ccccc1)c1ccc(OCCN(C)C)cc1)c1ccccc1 [TAMOXIFEN CITRATE] | 38
* CN(C)CCCN1c2ccccc2Sc2ccc(Cl)cc21.Cl [CHLORPROMAZINE HYDROCHLORIDE] | 11.9
* OC(c1cc(C(F)(F)F)nc2c(C(F)(F)F)cccc12)C1CCCCN1 (stereo not drawn) [MEFLOQUINE HYDROCHLORIDE] | 18.5

Any idea what its CC50 is? The compound is O=C1NCN(c2ccccc2)C12CCN(CCCC(c1ccc(F)cc1)c1ccc(F)cc1)CC2
30.3

Repeat for the following compound: CN(C)CCOc1ccc(/C(=C(/CCCl)c2ccccc2)c2ccccc2)cc1 [TOREMIFENE CITRATE]
20.5

Same for CC(C)N1CCN(c2ccc(OCC3COC(Cn4cncn4)(c4ccc(Cl)cc4Cl)O3)cc2)CC1 (stereo not drawn)
41.5

Entry to check: Nc1ccn([C@@H]2O[C@H](CO)[C@@H](O)C2(F)F)c(=O)n1 [GEMCITABINE HYDROCHLORIDE]
23.2

The measured values listed here are drawn from ChEMBL document CHEMBL4303087.
